binding signal overview
# system_under_test: GST-Nv-NF-kB (Cys allele) (Nematostella vectensis, UniProt E5G601 2-411)
# Sequence: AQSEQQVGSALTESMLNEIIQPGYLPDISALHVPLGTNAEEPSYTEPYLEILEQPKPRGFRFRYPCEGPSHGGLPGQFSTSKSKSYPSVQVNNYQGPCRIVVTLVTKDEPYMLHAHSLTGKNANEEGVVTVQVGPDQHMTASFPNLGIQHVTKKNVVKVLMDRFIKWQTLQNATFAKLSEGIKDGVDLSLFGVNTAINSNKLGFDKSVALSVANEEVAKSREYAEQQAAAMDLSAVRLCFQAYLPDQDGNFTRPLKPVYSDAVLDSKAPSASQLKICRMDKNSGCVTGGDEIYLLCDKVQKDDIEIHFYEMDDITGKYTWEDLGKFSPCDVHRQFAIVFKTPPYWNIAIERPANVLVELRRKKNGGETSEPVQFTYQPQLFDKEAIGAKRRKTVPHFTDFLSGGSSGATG
# protocol_summary: protein-binding microarray (PBM); PBM: ~300 nM protein, 6 mM HEPES pH 7.8, 80 mM KCl, 0.5 mM EDTA, 0.5 mM EGTA, 6% glycerol, 35 ng/ul poly-dIdC, 1% milk, 1 h, room temperature; high values mean tight binding
# test_settings: dsDNA, one strand shown
Give just the numeric value; z-score need not be written.

Worked set:
> print(dat)
                                   residues  numeric.readout
1  CCGATTAACATCAATTTATCCCCTGATGTTAATCGGGTCTTGATTCGCTTGACGCTGCTG             5.83
2  CCGATTAACATCAAATTCCCACGTGATGTTAATCGGGTCTTGATTCGCTTGACGCTGCTG             3.63
3  CCGATTAACATCATAATGGGAAATGATGTTAATCGGGTCTTGATTCGCTTGACGCTGCTG             2.83
4  CCGATTAACATCAAGGGGGGTGGTGATGTTAATCGGGTCTTGATTCGCTTGACGCTGCTG             3.67

Next:
Inquiry: Name the recorded binding signal of the sequence listed here: `CCGATTAACATCAGCAATTCCCCTGATGTTAATCGGGTCTTGATTCGCTTGACGCTGCTG`
Reply text: 7.8

----------
# system_under_test: GST-Hu-p50 (Homo sapiens, UniProt P19838 7-356)
# Sequence (P19838 7-356): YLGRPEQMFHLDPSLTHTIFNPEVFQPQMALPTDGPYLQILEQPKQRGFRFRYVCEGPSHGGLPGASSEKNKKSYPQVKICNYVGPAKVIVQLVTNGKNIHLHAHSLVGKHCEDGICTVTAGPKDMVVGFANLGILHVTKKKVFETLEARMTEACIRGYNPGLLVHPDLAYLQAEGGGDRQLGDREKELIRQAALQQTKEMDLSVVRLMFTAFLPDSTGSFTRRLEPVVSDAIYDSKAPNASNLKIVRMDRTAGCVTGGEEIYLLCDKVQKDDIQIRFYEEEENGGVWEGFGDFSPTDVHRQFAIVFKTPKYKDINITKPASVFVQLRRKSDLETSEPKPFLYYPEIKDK
# protocol_summary: protein-binding microarray (PBM); PBM: ~300 nM protein, 6 mM HEPES pH 7.8, 80 mM KCl, 0.5 mM EDTA, 0.5 mM EGTA, 6% glycerol, 35 ng/ul poly-dIdC, 1% milk, 1 h, room temperature; Ap Aiptasia and Nv Nematostella (sea anemones) / Co Capsaspora / Aq Amphimedon (sponge) / Dm Drosophila / Hu human; RHD is the Rel homology domain; high values mean tight binding
# test_settings: dsDNA, one strand shown
binding signal overview
Give just the numeric value; z-score need not be written.

Worked set:
> print(dat)
                                   residues  observed.property  numeric.readout
1  CCGATTAACATCAAGGGCTTTCCTGATGTTAATCGGGTCTTGATTCGCTTGACGCTGCTG     binding signal             1.47
2  CCGATTAACATCAGGGGACGTTATGATGTTAATCGGGTCTTGATTCGCTTGACGCTGCTG     binding signal             4.56
3  CCGATTAACATCACTGGATTCCCTGATGTTAATCGGGTCTTGATTCGCTTGACGCTGCTG     binding signal             1.36
4  CCGATTAACATCAGAGAATCCCCTGATGTTAATCGGGTCTTGATTCGCTTGACGCTGCTG     binding signal             6.99
5  CCGATTAACATCACGCAAATCCCTGATGTTAATCGGGTCTTGATTCGCTTGACGCTGCTG     binding signal             1.33
6  CCGATTAACATCAAAATACCCCGTGATGTTAATCGGGTCTTGATTCGCTTGACGCTGCTG     binding signal             5.49
7  CCGATTAACATCAAAACCCCCCCTGATGTTAATCGGGTCTTGATTCGCTTGACGCTGCTG     binding signal             6.53
8  CCGATTAACATCAGGGGAATCCATGATGTTAATCGGGTCTTGATTCGCTTGACGCTGCTG     binding signal             6.48

Inquiry: Using GST-Hu-p50 (Homo sapiens, UniProt P19838 7-356) as the test system, report measured binding signal of `CCGATTAACATCAGAAAGTTTCCTGATGTTAATCGGGTCTTGATTCGCTTGACGCTGCTG` .
Reply text: 1.69

Inquiry: Using GST-Hu-p50 (Homo sapiens, UniProt P19838 7-356) as the test system, report measured binding signal of `CCGATTAACATCAGATAATCCCCTGATGTTAATCGGGTCTTGATTCGCTTGACGCTGCTG` .
Reply text: 6.48

Inquiry: Using GST-Hu-p50 (Homo sapiens, UniProt P19838 7-356) as the test system, report measured binding signal of `CCGATTAACATCAAAATTCCCCCTGATGTTAATCGGGTCTTGATTCGCTTGACGCTGCTG` .
Reply text: 8.09

Inquiry: Using GST-Hu-p50 (Homo sapiens, UniProt P19838 7-356) as the test system, report measured binding signal of `CCGATTAACATCAATTATTCCCCTGATGTTAATCGGGTCTTGATTCGCTTGACGCTGCTG` .
Reply text: 6.11

Inquiry: Using GST-Hu-p50 (Homo sapiens, UniProt P19838 7-356) as the test system, report measured binding signal of `CCGATTAACATCAAGGGGGATATTGATGTTAATCGGGTCTTGATTCGCTTGACGCTGCTG` .
Reply text: 6.33

Inquiry: Using GST-Hu-p50 (Homo sapiens, UniProt P19838 7-356) as the test system, report measured binding signal of `CCGATTAACATCAGGAGTGTCCCTGATGTTAATCGGGTCTTGATTCGCTTGACGCTGCTG` .
Reply text: 1.29

Inquiry: Using GST-Hu-p50 (Homo sapiens, UniProt P19838 7-356) as the test system, report measured binding signal of `CCGATTAACATCAGGGAGTGCCCTGATGTTAATCGGGTCTTGATTCGCTTGACGCTGCTG` .
Reply text: 1.98

Inquiry: Using GST-Hu-p50 (Homo sapiens, UniProt P19838 7-356) as the test system, report measured binding signal of `CCGATTAACATCAGATAAACCCCTGATGTTAATCGGGTCTTGATTCGCTTGACGCTGCTG` .
Reply text: 4.53

Inquiry: Using GST-Hu-p50 (Homo sapiens, UniProt P19838 7-356) as the test system, report measured binding signal of `CCGATTAACATCAAAAGTCCCCGTGATGTTAATCGGGTCTTGATTCGCTTGACGCTGCTG` .
Reply text: 6.58

Inquiry: Using GST-Hu-p50 (Homo sapiens, UniProt P19838 7-356) as the test system, report measured binding signal of `CCGATTAACATCAGGGGGGGTAATGATGTTAATCGGGTCTTGATTCGCTTGACGCTGCTG` .
Reply text: 3.7
